SUBJECT OF TEST: T1, cynomolgus BLyS (full length, arginine to histidine at position 132) on CHO-K1 cells (cynomolgus, UniProt Q9Y275 1-285 (human entry))
T1 construct: also called cyno BLyS; CHO-K1 cynoBLyS
T1 chain: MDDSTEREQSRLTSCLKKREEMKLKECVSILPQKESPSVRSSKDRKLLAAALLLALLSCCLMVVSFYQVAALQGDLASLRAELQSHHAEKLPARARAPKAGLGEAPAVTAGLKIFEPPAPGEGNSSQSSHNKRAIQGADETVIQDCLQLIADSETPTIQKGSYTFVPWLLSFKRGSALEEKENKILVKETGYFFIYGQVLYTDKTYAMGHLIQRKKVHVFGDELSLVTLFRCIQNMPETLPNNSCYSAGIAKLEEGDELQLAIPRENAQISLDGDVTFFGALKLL
ASSAY PROCEDURE: flow cytometry, CHO-K1 cynoBLyS cells, antibody 0.534 nM
VALUE KIND: MFI

BINDER: 20D1B6E9E5 (antibody, V domains shown, Mouse hybridoma monoclonal antibody purified on Protein G) VH: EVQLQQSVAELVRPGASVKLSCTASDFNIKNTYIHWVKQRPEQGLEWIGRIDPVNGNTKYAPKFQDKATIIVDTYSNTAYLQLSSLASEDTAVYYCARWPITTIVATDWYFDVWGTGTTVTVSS VL: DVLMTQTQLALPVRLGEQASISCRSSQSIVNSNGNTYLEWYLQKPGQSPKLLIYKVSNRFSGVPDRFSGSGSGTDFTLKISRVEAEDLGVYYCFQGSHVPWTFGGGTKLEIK
MFI: 808 MFI

I would be grateful if you could provide MFI for each of the following entries.
1. 97E7B3F2 (antibody, V domains shown, Mouse hybridoma monoclonal antibody purified on Protein G) VH: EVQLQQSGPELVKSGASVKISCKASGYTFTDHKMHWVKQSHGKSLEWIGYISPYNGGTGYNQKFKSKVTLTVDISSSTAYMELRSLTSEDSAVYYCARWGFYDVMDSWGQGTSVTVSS VL: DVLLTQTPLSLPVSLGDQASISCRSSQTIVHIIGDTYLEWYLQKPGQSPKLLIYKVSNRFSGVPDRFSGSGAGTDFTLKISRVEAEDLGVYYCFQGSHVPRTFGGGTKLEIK
2. 89A2G5E7 (antibody, V domains shown, Mouse hybridoma monoclonal antibody purified on Protein G) VH: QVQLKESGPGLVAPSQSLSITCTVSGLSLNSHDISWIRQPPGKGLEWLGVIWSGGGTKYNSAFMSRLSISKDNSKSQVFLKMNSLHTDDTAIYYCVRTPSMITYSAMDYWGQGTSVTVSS VL: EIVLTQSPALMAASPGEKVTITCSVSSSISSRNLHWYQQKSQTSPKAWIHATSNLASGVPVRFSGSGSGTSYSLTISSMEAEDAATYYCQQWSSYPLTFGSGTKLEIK

[reply]
688 MFI
355 MFI
